# measured on: CXCL10_HUMAN (human, UniProt P02778 22-98)
# Sequence (P02778 22-98): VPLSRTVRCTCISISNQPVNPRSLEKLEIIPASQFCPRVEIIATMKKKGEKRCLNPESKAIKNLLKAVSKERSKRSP
# test: BLI
pKd: −log10 of the molar value.
Here the recorded pKd is given for each entry.
property name: pKd

INSERT INTO assay_data (binder, recorded_value) VALUES
  ('P675_IXORI (other) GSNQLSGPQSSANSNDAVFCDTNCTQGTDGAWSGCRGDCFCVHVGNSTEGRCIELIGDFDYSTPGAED', 5.51),
  ('P1080_IXORI (other) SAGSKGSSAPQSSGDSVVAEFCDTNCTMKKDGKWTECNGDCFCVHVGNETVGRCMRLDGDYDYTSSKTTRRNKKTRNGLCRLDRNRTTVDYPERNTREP', 5.90),
  ('P942_IXORI (other) NQLSGPQSSANSNEAVFCDTNCTQGTDEAWSGCRGDCFCVYVGNSTEGRCMMLSGDFDYSTPGAED', 6.88);
